pIC50: −log10 of the molar value.
Ok so here's the combined literature set: pIC50 for Proto-oncogene tyrosine-protein kinase Src (Homo sapiens).

Task item: Requested read-out pIC50, target or system Proto-oncogene tyrosine-protein kinase Src (Homo sapiens), entry COc1cc(Nc2ncnc(Nc3cccc4cccnc34)n2)cc(OC)c1OC
Reply: < 4.95

Task item: Requested read-out pIC50, target or system Proto-oncogene tyrosine-protein kinase Src (Homo sapiens), entry C=CC(=O)N1CCC(N2CC(C#Cc3c(-c4ccc(C(F)(F)F)cc4)c4c(N)ncnc4n3C)C2)CC1
Reply: 6.00 to 8.00

Task item: Requested read-out pIC50, target or system Proto-oncogene tyrosine-protein kinase Src (Homo sapiens), entry COc1cc(-c2cc3nccc(-c4cccc(C(=O)NC5CCCCC5N)c4)c3o2)cc(OC)c1OC (stereo not shown)
Reply: 5.52 to 6.52

Task item: Requested read-out pIC50, target or system Proto-oncogene tyrosine-protein kinase Src (Homo sapiens), entry C=CC(=O)N1C[C@@H]2[C@@H](C#Cc3c(-c4ccc(Oc5cccc(C)n5)cc4OC)c4c(N)ncnc4n3CCOC)[C@@H]2C1
Reply: 6.00 to 8.00

Task item: Requested read-out pIC50, target or system Proto-oncogene tyrosine-protein kinase Src (Homo sapiens), entry CCS(=O)(=O)Nc1ccc(F)c(C(=O)c2c[nH]c3ncc(Br)cc23)c1F
Reply: ≥ 5.00

Task item: Requested read-out pIC50, target or system Proto-oncogene tyrosine-protein kinase Src (Homo sapiens), entry CC(C)(C)c1cc(NC(=O)Nc2ccc(Oc3ccnc(Nc4cc(OCCN5CCOCC5)cc(C(F)(F)F)c4)n3)c3ccccc23)n(-c2cccc(CP(C)(C)=O)c2)n1
Reply: 7.85

Task item: Requested read-out pIC50, target or system Proto-oncogene tyrosine-protein kinase Src (Homo sapiens), entry COCC(COC)NC(=O)c1cccc(-c2nc3cc(NC(=O)c4ccccc4Cl)cnc3[nH]2)c1
Reply: 6.52 to 8.30

Task item: Requested read-out pIC50, target or system Proto-oncogene tyrosine-protein kinase Src (Homo sapiens), entry COc1cc(Nc2cc(Oc3ccc(NC(=O)Nc4cc(C(C)(C)C)cc(NS(C)(=O)=O)c4OC)c4ccccc34)ccn2)ccc1C(=O)NCCCN1CCCOCC1
Reply: 7.92

Task item: Requested read-out pIC50, target or system Proto-oncogene tyrosine-protein kinase Src (Homo sapiens), entry Cc1ccc(-c2c3nc4c(cnn4c2N)C(=O)NC[C@H](C)Oc2ncc(F)cc2CN3)cc1
Reply: 9.89

Task item: Requested read-out pIC50, target or system Proto-oncogene tyrosine-protein kinase Src (Homo sapiens), entry OCc1cccc(Nc2ncnc(Nc3cc(-c4ccco4)n[nH]3)n2)c1
Reply: > 5.94

Task item: Requested read-out pIC50, target or system Proto-oncogene tyrosine-protein kinase Src (Homo sapiens), entry CS(=O)(=O)Nc1cccc(-c2cnc3[nH]cc(C(=O)c4cc(NS(=O)(=O)C5CCCCC5)ccc4F)c3c2)c1
Reply: ≥ 5.00

Task item: Requested read-out pIC50, target or system Proto-oncogene tyrosine-protein kinase Src (Homo sapiens), entry COc1cc(Nc2ncnc(-n3c(N)nc4ccccc43)n2)ccc1OCCn1ccnn1
Reply: < 4.99

Task item: Requested read-out pIC50, target or system Proto-oncogene tyrosine-protein kinase Src (Homo sapiens), entry COc1ccc(-n2nc(-c3ccncc3)c(-c3ccc(F)cc3)c2N)cc1
Reply: 4.64

Task item: Requested read-out pIC50, target or system Proto-oncogene tyrosine-protein kinase Src (Homo sapiens), entry Cc1cc(C)cc(-c2cc3nccc(Nc4ccc5[nH]ccc5c4C)c3o2)c1
Reply: 5.52 to 6.52

Task item: Requested read-out pIC50, target or system Proto-oncogene tyrosine-protein kinase Src (Homo sapiens), entry Cc1cc(-c2nc3cc(NC(=O)OC(C)C)cnc3[nH]2)ccn1
Reply: 6.30 to 8.00

Task item: Requested read-out pIC50, target or system Proto-oncogene tyrosine-protein kinase Src (Homo sapiens), entry Cc1ccc(S(N)(=O)=O)cc1Nc1cnc(Nc2ccc(S(=O)(=O)NCCN3CCCC3)cc2)nc1
Reply: ~5.00
